meta.source: patent US20130210851A1

assay: Solubility of the saturated solution in aqueous media; format: physicochemical; conditions: McIlvaine buffer, aqueous buffer, thermodynamic from solid; McIlvaine pH 6.0; intrinsic pH 6.2; 48 h shaking at room temperature; read-out: solubility RT - values
parameter: solubility at 48 h

solubility at 48 h for CC(C)c1nc2c(c3c1[C@@H](c1ccc(C(F)(F)F)cc1)OC31CCOCC1)[C@@H](O)CC(C)(C)C2.Cl [crystalline hydrochloride salt form] ?
< 3 µg/mL

###

experiment: Solubility of the saturated solution in aqueous media; type: physicochemical; conditions: McIlvaine buffer, aqueous buffer, thermodynamic from solid; McIlvaine pH 2.2; intrinsic pH 2.0; 48 h shaking at room temperature; read-out: solubility RT - values
parameter: solubility at 48 h (µg/mL)
# output: bare number, implied unit µg/mL

Using the record for CC(C)c1nc2c(c3c1[C@@H](c1ccc(C(F)(F)F)cc1)OC31CCOCC1)[C@@H](O)CC(C)(C)C2.Cl [crystalline hydrochloride salt form] , report its solubility at 48 h.
1600

###

experiment: Solubility of the saturated solution in aqueous media; format: physicochemical; details: McIlvaine buffer, aqueous buffer, thermodynamic from solid; McIlvaine pH 6.8; intrinsic pH 7.0; 48 h shaking at room temperature; read-out: solubility RT - values
parameter: solubility at 48 h

May I ask what solubility at 48 h has been recorded for CC(C)c1nc2c(c3c1[C@@H](c1ccc(C(F)(F)F)cc1)OC31CCOCC1)[C@@H](O)CC(C)(C)C2.Cl [crystalline hydrochloride salt form] ?
< 3 µg/mL

###

assay: Solubility of the saturated solution in aqueous media; format: physicochemical; details: acetate buffer, aqueous buffer, thermodynamic from solid; Acetate pH 4.0; intrinsic pH 4.2; 48 h shaking at room temperature; read-out: solubility RT - values
parameter: solubility at 48 h (µg/mL)
// units = µg/mL; emit number, no label

Can you look up the measured solubility at 48 h of CC(C)c1nc2c(c3c1[C@@H](c1ccc(C(F)(F)F)cc1)OC31CCOCC1)[C@@H](O)CC(C)(C)C2.Cl [crystalline hydrochloride salt form] for me?
60

###

assay: Solubility of the saturated solution in aqueous media; type: physicochemical; settings: McIlvaine buffer, aqueous buffer, thermodynamic from solid; McIlvaine pH 4.0; intrinsic pH 4.0; 48 h shaking at room temperature; read-out: solubility RT - values
parameter: solubility at 48 h

I'd like to know its solubility at 48 h. The molecule in question is CC(C)c1nc2c(c3c1[C@@H](c1ccc(C(F)(F)F)cc1)OC31CCOCC1)[C@@H](O)CC(C)(C)C2.Cl [crystalline hydrochloride salt form]
90 µg/mL

###

test: Solubility of the saturated solution in aqueous media; assay type: physicochemical; settings: simulated gastric fluid, thermodynamic from solid; 0.01N HCl; intrinsic pH 1.9; 48 h shaking at room temperature; read-out: solubility RT - values
parameter: solubility at 48 h
Put your answer as a value accompanied by its unit after it.

Looking for the measured solubility at 48 h of CC(C)c1nc2c(c3c1[C@@H](c1ccc(C(F)(F)F)cc1)OC31CCOCC1)[C@@H](O)CC(C)(C)C2.Cl [crystalline hydrochloride salt form] , can you help?
1900 µg/mL

###

test: Solubility of the saturated solution in aqueous media; format: physicochemical; conditions: thermodynamic from solid; water; intrinsic pH 1.6; 48 h shaking at room temperature; read-out: solubility RT - values
parameter: solubility at 48 h (mg/mL)
The reply should contain only the number, in mg/mL.

Query: solubility at 48 h; subject: CC(C)c1nc2c(c3c1[C@@H](c1ccc(C(F)(F)F)cc1)OC31CCOCC1)[C@@H](O)CC(C)(C)C2.Cl [crystalline hydrochloride salt form]
3.1
